target: T1, SARS-COV-2 RBD (SARS-COV-2, UniProt P0DTC2 319-539); experiment: ELISA, RBD coated on plate
T1 construct: also called WT RBD
Field 'label' (enum: TRUE / FALSE). Set to TRUE when EC50 is strictly under 3 ng/mL; else FALSE.

Task item: hey, is EC50 for C1001 (antibody, V domains shown) VH: QVQLQESGPGLVKPSQTLSLTCTVSGGSISSGDYYWTWIRQPPGKGLEWIGYIFYSGITYYSPSLKSRLTMSIDTSKSQFSLNLSSVTAADTAVYYCARWKRLLQSLHFDYWGQGILVTVSS VL: QSALTQPRSVSGSPGQSVTISCTGTSSDVGSYDYVSWYQQHPGKAPKVMIYGVDERPSGVPHRFSGSKSGNTASLTISGLQADDEADYFCCFYAGSYTLLFGGGTKVTVL lower than 3 ng/mL or not?
Reply: FALSE

Task item: hey, is EC50 for C1002 (antibody, V domains shown) VH: EVQLVESGGGLVQPGGSLRLSCAASEFIVSSNYMTWVRQAPGKGLEWVSIMYPGGSTFYADSVKGRFTISRDNSKNTLYLQINRLRAEDTAVYYCARDIAGRLDYWGQGTLVTVSS VL: DIQMTQSPSSLSASVGDRVTITCQASQDINNYLNWYQQKPGKAPKLLIYDASNLETGVPSRFSGSGSGTDFSFTISSLQPEDIATYYCQQYDNLSRLTFGGGTKVEIK lower than 3 ng/mL or not?
Reply: TRUE

Task item: hey, is EC50 for C932 (antibody, V domains shown) VH: QVQLVESGGSVVQPGKSLRLSCAGSGFAFSTYGMHWVRQAPGKGLEWVAVISSDGGNKYYADSVKGRFTISRDNYENTLYLQMNSLGAEDTAVYYCAKVALRGVFISLYYGMDVWGQGTTVTVSS VL: SYELTQPPSVSVTPGQTASITCSGDKLGDKYACWFLQKPGQSPLLVIYQDTKRPSGIPDRLSGSKSGNTATLTISGTQAMDEADYYCQTWDSSAVVFGGGTKLTV lower than 3 ng/mL or not?
Reply: FALSE

Task item: hey, is EC50 for C1012 (antibody, V domains shown) VH: QVQLVQSGAEVKKPGSSVKVSCKASGGTVNNYAINWVRQAPGQGLEWMGGIVPIFGTPNYAQKFQGRVTITADESTSTAYMELSSLRSEDTAVYYCAKVSLTLPIAAAPRFWFDSWGQGTLVTVSS VL: EIVMTQSPATLSVSPGERATLSCRASQSVSSHLAWYQQKPGQAPRLLIYGASTRATGIPARFSGSGSGTEFTLTISSLQSEDFAVYYCQQYHNWPPALTFGGGTKVEIK lower than 3 ng/mL or not?
Reply: FALSE
